We begin with a simple list: items and their reported IA(β3).
- assayTarget: β3-adrenergic receptor (Homo sapiens, UniProt P13945)
- Construct: Full length β3 AR clones (402 amino acids) containing the last 6 amino acids of hβ3-AR are prepared; expressed in transfected cells; host or cells: CHO (Chinese hamster ovary) cells
- Sequence (P13945 whole entry): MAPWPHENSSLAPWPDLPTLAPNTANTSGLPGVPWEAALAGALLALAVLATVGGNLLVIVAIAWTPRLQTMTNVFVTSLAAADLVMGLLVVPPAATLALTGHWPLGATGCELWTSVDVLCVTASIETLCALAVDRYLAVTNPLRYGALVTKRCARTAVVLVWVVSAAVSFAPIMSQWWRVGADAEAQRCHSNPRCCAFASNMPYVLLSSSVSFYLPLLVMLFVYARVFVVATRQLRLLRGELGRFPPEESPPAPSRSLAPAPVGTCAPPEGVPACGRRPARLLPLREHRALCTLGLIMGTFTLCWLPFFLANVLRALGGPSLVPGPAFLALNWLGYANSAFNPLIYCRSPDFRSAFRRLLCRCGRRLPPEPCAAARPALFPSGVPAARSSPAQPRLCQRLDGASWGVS
- testProtocol: cAMP accumulation (SPA) in CHO cells transfected with human β3 adrenergic receptor
- Type: cell-based
- conditionDetails: maximal response relative to maximal response of isoproterenol at 10^-5 M

[
  {
    "compound": "O=C1CCc2c(OC[C@@H](O)CNCCOc3ccc(C=C4SC(N5CCCCC5)=NC4=O)cc3)ccc(O)c2N1 [Example 34]",
    "IA(β3)": 1.0
  },
  {
    "compound": "Cl.O=C1N=C(N2CCCCC2)SC1=Cc1ccc(OCCNC[C@H](O)COc2ccc(O)cc2)cc1 [Example 31]",
    "IA(β3)": 0.84
  },
  {
    "compound": "CS(=O)(=O)Nc1cc(C(O)CNCCOc2ccc(C=C3SC(N4CCCCC4)=NC3=O)cc2)ccc1O (stereo not shown) [Example 33]",
    "IA(β3)": 0.86
  },
  {
    "compound": "O=C1N=C(N2CCOCC2)SC1=Cc1ccc(N2CCC(NC[C@H](O)COc3cccc4[nH]c(=O)[nH]c34)CC2)cc1 [Example 18]",
    "IA(β3)": 0.89
  }
]

###

Measured melting point of individual entries
measuredParameter: melting point

[
  {
    "smilesRepresentation": "CN1CCN(C2=NC(=O)C(=Cc3ccc(N4CCC(NC[C@H](O)COc5cccc6[nH]c(=O)[nH]c56)CC4)cc3)S2)CC1",
    "observedValue": "> 150 °C (dec.)"
  },
  {
    "smilesRepresentation": "Cl.Cl.O=C1N=C(N2CCOCC2)SC1=Cc1ccc(N2CCC(NC[C@H](O)COc3ccccc3)CC2)cc1",
    "observedValue": "> 160 °C (dec.)"
  },
  {
    "smilesRepresentation": "CN(C)CCCNC1=NC(=O)C(=Cc2ccc(N3CCC(NC[C@H](O)COc4ccccc4)CC3)cc2)S1",
    "observedValue": "166 to 168 °C (dec.)"
  },
  {
    "smilesRepresentation": "CCOC(=O)CCNC1=NC(=O)C(=Cc2ccc(N3CCC(NC[C@H](O)COc4cccc5[nH]c(=O)[nH]c45)CC3)cc2)S1",
    "observedValue": "> 120 °C (dec.)"
  },
  {
    "smilesRepresentation": "CNC1=NC(=O)C(=Cc2ccc(N3CCC(NC[C@H](O)COc4cccc5[nH]c(=O)[nH]c45)CC3)cc2)S1",
    "observedValue": "> 160 °C (dec.)"
  },
  {
    "smilesRepresentation": "O=C1N=C(N2CCCCC2)SC1=Cc1ccc(N2CCC(NC[C@H](O)COc3ccc(O)cc3)CC2)cc1",
    "observedValue": "> 85 °C (dec.)"
  },
  {
    "smilesRepresentation": "CCOC(=O)CC[C@H](NC1=NC(=O)C(=Cc2ccc(N3CCC(NC[C@H](O)c4ccc(O)c(NS(C)(=O)=O)c4)CC3)cc2)S1)C(=O)OCC",
    "observedValue": "> 130 °C (dec.)"
  }
]

###

- assayTarget: β3-adrenergic receptor (Homo sapiens)
- Construct: Full length β3 AR clones (402 amino acids) containing the last 6 amino acids of hβ3-AR are prepared; expressed in transfected cells; host or cells: CHO (Chinese hamster ovary) cells
- testProtocol: cAMP accumulation (SPA) in CHO cells transfected with human β3 adrenergic receptor
- Assay type: cell-based
- conditionDetails: maximal response relative to maximal response of isoproterenol at 10^-5 M
Parameter: IA(β3). Scope: all listed entries.

[
  {
    "compound": "CCOC(=O)CC[C@H](NC1=NC(=O)C(=Cc2ccc(N3CCC(NC[C@H](O)c4ccc(O)c(NS(C)(=O)=O)c4)CC3)cc2)S1)C(=O)OCC [Example 30]",
    "IA(β3)": 1.0
  },
  {
    "compound": "CNC1=NC(=O)C(=Cc2ccc(N3CCC(NC[C@H](O)COc4cccc5[nH]c(=O)[nH]c45)CC3)cc2)S1 [Example 1]",
    "IA(β3)": 1.0
  },
  {
    "compound": "O=C1N=C(NCCN2CCOCC2)SC1=Cc1ccc(N2CCC(NC[C@H](O)COc3cccc4[nH]c(=O)[nH]c34)CC2)cc1 [Example 2]",
    "IA(β3)": 1.0
  },
  {
    "compound": "CCCCCCNC1=NC(=O)C(=Cc2ccc(N3CCC(NC[C@H](O)COc4ccccc4)CC3)cc2)S1 [Example 27]",
    "IA(β3)": 0.58
  },
  {
    "compound": "O=C1N=C(N2CCCCC2)SC1=Cc1ccc(N2CCC(NC[C@H](O)COc3ccc(O)cc3)CC2)cc1 [Example 16]",
    "IA(β3)": 0.96
  },
  {
    "compound": "O=C1N=C(NO)SC1=Cc1ccc(N2CCC(NC[C@H](O)COc3cccc4[nH]c(=O)[nH]c34)CC2)cc1 [Example 10]",
    "IA(β3)": 0.69
  },
  {
    "compound": "O=C1N=C(NC2CCN(Cc3ccccc3)CC2)SC1=Cc1ccc(N2CCC(NC[C@H](O)COc3ccc(O)cc3)CC2)cc1 [Example 4]",
    "IA(β3)": 0.6
  }
]

###

Let's look at some compounds and their measured IA(β3).
- assayTarget: β3-adrenergic receptor (Homo sapiens, UniProt P13945)
- Construct: Full length β3 AR clones (402 amino acids) containing the last 6 amino acids of hβ3-AR are prepared; expressed in transfected cells; host or cells: CHO (Chinese hamster ovary) cells
- testProtocol: cAMP accumulation (SPA) in CHO cells transfected with human β3 adrenergic receptor
- Type: cell-based
- conditionDetails: maximal response relative to maximal response of isoproterenol at 10^-5 M
measuredParameter: IA(β3)

[
  {
    "compound": "CN1CCN(C2=NC(=O)C(=Cc3ccc(N4CCC(NC[C@H](O)COc5ccc(O)cc5)CC4)cc3)S2)CC1 [Example 24]",
    "observedValue": 1.0
  },
  {
    "compound": "O=C(O)CCNC1=NC(=O)C(=Cc2ccc(N3CCC(NC[C@H](O)COc4cccc5[nH]c(=O)[nH]c45)CC3)cc2)S1 [Example 9]",
    "observedValue": 0.81
  },
  {
    "compound": "O=C(O)CC[C@H](NC1=NC(=O)C(=Cc2ccc(N3CCC(NC[C@H](O)COc4cccc5[nH]c(=O)[nH]c45)CC3)cc2)S1)C(=O)O [Example 29]",
    "observedValue": 0.91
  },
  {
    "compound": "Cl.Cl.O=C1N=C(N2CCOCC2)SC1=Cc1ccc(N2CCC(NC[C@H](O)COc3ccccc3)CC2)cc1 [Example 22]",
    "observedValue": 0.58
  },
  {
    "compound": "Cl.O=C1N=C(N2CCCCC2)SC1=Cc1ccc(OCCNC[C@H](O)COc2ccccc2)cc1 [Example 32]",
    "observedValue": 0.33
  },
  {
    "compound": "O=C1N=C(N2CCOCC2)SC1=Cc1ccc(N2CCC(NC[C@H](O)COc3ccc(O)cc3)CC2)cc1 [Example 23]",
    "observedValue": 0.78
  },
  {
    "compound": "CCOC(=O)CCNC1=NC(=O)C(=Cc2ccc(N3CCC(NC[C@H](O)COc4cccc5[nH]c(=O)[nH]c45)CC3)cc2)S1 [Example 8]",
    "observedValue": 0.75
  }
]
